Measured pEC50 values are reported for all entries that follow.
Measured On: S1P1/EDG1 (Homo sapiens)
Sequence (P21453 whole entry): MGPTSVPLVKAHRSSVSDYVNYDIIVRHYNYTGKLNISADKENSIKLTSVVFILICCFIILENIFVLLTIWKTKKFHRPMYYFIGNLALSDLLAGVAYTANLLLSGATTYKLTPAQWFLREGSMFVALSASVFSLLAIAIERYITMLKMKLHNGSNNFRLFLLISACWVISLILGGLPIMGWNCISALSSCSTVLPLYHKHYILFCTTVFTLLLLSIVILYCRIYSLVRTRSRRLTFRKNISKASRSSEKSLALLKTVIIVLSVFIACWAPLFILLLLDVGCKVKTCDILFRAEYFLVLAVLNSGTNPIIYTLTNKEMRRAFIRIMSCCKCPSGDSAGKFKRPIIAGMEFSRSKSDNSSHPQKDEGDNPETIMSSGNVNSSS
Assay Explanation: S1P1 CRE-bla CHOK1 reporter assay, inhibition of Forskolin induced cAMP
Type: cell-based
Assay Conditions: agonist activity range, S1P1 CRE-bla CHOK1, 2 μM Forskolin; read-out: S1P1 ACTIVITY
pEC50: −log10 of the molar value.

>>> print(df.to_string())
                                   molecule     test_value
0  CC(C)Oc1ccc(-c2nc(-c3cccc4c3CC[C@@H]4NCCF)no2)cc1C#N  9.30 to 10.30
1  CC(C)Oc1ccc(-c2nc(-c3cccc4c3CC[C@@H]4NS(=O)(=O)CCN3CCC3)no2)cc1C#N   8.30 to 9.30
2  CC(C)Oc1ccc(-c2nc(-c3cccc4c3CC[C@@H]4N)no2)cc1C#N  9.30 to 10.30

[in] Answer with reported pEC50 of CC(C)Oc1ccc(-c2nc(-c3cccc4c3CCC4NS(=O)(=O)c3ccc(C(=O)O)cc3)no2)cc1C#N (stereo in doubt)
[out] < 8.30
